Where do the numbers come from? From patent US20230235080A1.

# measured-target: T1, human Trop-2 on Trop-2 positive cancer cells (human, UniProt P09758 27-323)
# T1 sequence (looked up): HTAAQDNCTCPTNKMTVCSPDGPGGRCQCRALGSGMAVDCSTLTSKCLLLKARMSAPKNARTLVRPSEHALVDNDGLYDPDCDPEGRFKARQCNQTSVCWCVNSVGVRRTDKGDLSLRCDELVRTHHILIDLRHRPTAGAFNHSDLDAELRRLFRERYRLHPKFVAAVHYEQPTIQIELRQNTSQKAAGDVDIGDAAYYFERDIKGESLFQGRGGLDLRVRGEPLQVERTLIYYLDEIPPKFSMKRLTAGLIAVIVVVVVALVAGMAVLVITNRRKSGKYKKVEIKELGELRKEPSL
# assay: cell-based or functional assay
Reported Internalization rate (flow cytometry, MDA-MB-468 cells) is given for each of the following binders.
Only the number, expressed in %, is required.

Exam item: Which Internalization rate (flow cytometry, MDA-MB-468 cells) is reported for this binder? humanized #125-1-5 Hu3/Lu6 (antibody, V domains shown, Humanized antibody) VH: QVQLVQSGAEVKKPGASVKVSCKASGYTFTTYVIHWVRQAPGQRLEWMGYINPNNDGTKYNEKFKGKATLTSDKSSTTAYMEVRGLTSEDSAVYYCARPHFETHAMDYWGQGTLVTVSS VL: DIQMTQSPSSLSASVGDRVTITCKASEDIFNRLAWYQQKPGKAPKLLISGATSLETGVPSRFSGSGSGKDYTLTISSLQPEDFATYYCQQYWNTWTFGQGTKVEIK
Marked response: 7.5

Exam item: Which Internalization rate (flow cytometry, MDA-MB-468 cells) is reported for this binder? humanized #125-1-5 Hu4/Lu6 (antibody, V domains shown, Humanized antibody) VH: QVQLVQSGAEVKKPGASVKMSCKASGYTFTTYVIHWVRQAPGQRLEWIGYINPNNDGTKYNEKFKGRATLTSDKSASTAYMELSSLRSEDTAVYYCARPHFETHAMDYWGQGTLVTVSS VL: DIQMTQSPSSLSASVGDRVTITCKASEDIFNRLAWYQQKPGKAPKLLISGATSLETGVPSRFSGSGSGKDYTLTISSLQPEDFATYYCQQYWNTWTFGQGTKVEIK
Marked response: 10.3

Further cases:
Exam item: Which Internalization rate (flow cytometry, MDA-MB-468 cells) is reported for this binder? humanized #125-1-5 Hu2/Lu5 (antibody, V domains shown, Humanized antibody) VH: QVQLVQSGAEVKKPGASVKVSCKASGYTFTTYVIHWVKQKPGQGLEWIGYINPNNDGTKYNEKFKGRVTITRDTSASTAYMELSSLRSEDTAVYYCARPHFETHAMDYWGQGTLVTVSS VL: DIQMTQSPSSLSASVGDRVTITCKASEDIFNRLAWYQQKPGKAPKLLLYGATSLETGVPSRFSGSGSGTDYTLTISSLQPEDFATYYCQQYWNTWTFGQGTKVEIK
Marked response: 47.3
